Let's look at some compounds and their measured CC50 at 24 h.
PROTOCOL_TEXT: Cytotoxicity against NQO1-deficient human HL60 cells assessed as cell viability after 24 hrs by MTT assay
Assay type: cell-based, HL-60
TEST_PARAMETERS: read-out: LC50
ENDPOINT_NAME: CC50 at 24 h

1. COc1cccc2c1C(=O)c1c(O)c3c(c(O)c1C2=O)C[C@@](O)(C(=O)CO)C[C@@H]3O[C@H]1C[C@H](N)[C@H](O)[C@H](C)O1 [DOXORUBICIN] : 0.37 µM
2. O=C1C(=O)c2c(nc3ccccn23)-c2ccccc21 : > 15 µM
3. O=C1C(=O)c2c(nc3ncccn23)-c2ccccc21 : > 15 µM
4. O=C1C(=O)c2c(nc3ccc(Cl)cn23)-c2ccccc21 : 10 µM
5. O=C1C(=O)c2c(nc3ccc(C(F)(F)F)cn23)-c2ccccc21 : > 15 µM
6. O=C1C(=O)c2c(nc3ccc(F)cn23)-c2ccccc21 : 13 µM
7. Cc1ccc2nc3c(n2c1)C(=O)C(=O)c1ccccc1-3 : > 15 µM
8. O=C1C(=O)c2c(nc3ccccn23)-c2ccc([N+](=O)[O-])cc21 : > 15 µM
9. Cc1ccn2c3c(nc2c1)-c1ccccc1C(=O)C3=O : > 15 µM
10. Cc1cccn2c3c(nc12)-c1ccccc1C(=O)C3=O : > 15 µM
11. COc1ccc2nc3c(n2c1)C(=O)C(=O)c1ccccc1-3 : > 15 µM
12. O=C1C(=O)c2c(nc3ccc(Br)cn23)-c2ccccc21 : > 15 µM
13. O=C1C(=O)c2c(nc3ccc4ccccc4n23)-c2ccccc21 : > 15 µM
14. O=C1C(=O)c2c(nc3ccc([N+](=O)[O-])cn23)-c2ccccc21 : > 15 µM

###

System: MCF7
PROTOCOL_TEXT: Cytotoxicity against human MCF7 cells expressing NQO1 assessed as cell viability after 24 hrs by MTT assay
Assay type: functional
TEST_PARAMETERS: MCF7, 24 h, read-out: LC50 (the source's name)
ENDPOINT_NAME: CC50 (nM)

1. Cc1ccc2nc3c(n2c1)C(=O)C(=O)c1ccccc1-3 : 3940
2. O=C1C(=O)c2c(nc3ccc(C(F)(F)F)cn23)-c2ccccc21 : 3780
3. Cc1cccn2c3c(nc12)-c1ccccc1C(=O)C3=O : 1700
4. Cc1ccn2c3c(nc2c1)-c1ccccc1C(=O)C3=O : 1250

###

Let's look at some compounds and their measured CC50.
System: MCF7
PROTOCOL_TEXT: Cytotoxicity against human MCF7 cells expressing NQO1 assessed as cell viability after 24 hrs by MTT assay
Assay type: functional
TEST_PARAMETERS: MCF7, 24 h, read-out: LC50 (the source's name)
ENDPOINT_NAME: CC50

1) COc1cccc2c1C(=O)c1c(O)c3c(c(O)c1C2=O)C[C@@](O)(C(=O)CO)C[C@@H]3O[C@H]1C[C@H](N)[C@H](O)[C@H](C)O1 : 1560 nM
2) O=C1C(=O)c2c(nc3ccc4ccccc4n23)-c2ccccc21 : > 15000 nM
3) COc1ccc2nc3c(n2c1)C(=O)C(=O)c1ccccc1-3 : 2100 nM
4) O=C1C(=O)c2c(nc3ccccn23)-c2ccccc21 : 510 nM
5) O=C1C(=O)c2c(nc3ncccn23)-c2ccccc21 : 800 nM
6) O=C1C(=O)c2c(nc3ccccn23)-c2ccc([N+](=O)[O-])cc21 : 280 nM
7) O=C1C(=O)c2c(nc3ccc(Cl)cn23)-c2ccccc21 : 3410 nM
8) O=C1C(=O)c2c(nc3ccc([N+](=O)[O-])cn23)-c2ccccc21 : 1700 nM
9) O=C1C(=O)c2c(nc3ccc(Br)cn23)-c2ccccc21 : 1390 nM
10) O=C1C(=O)c2c(nc3ccc(F)cn23)-c2ccccc21 : 1320 nM
